assaySystem: T1, CD3 on Jurkat cells (human)
T1 construct: native, on the surface of Jurkat cells; The sheets print only 'Jurkat'; also called human CD3; TCR/CD3 complex on the human T cell line Jurkat
T1 sequence (P07766 23-207, chain 1 of 4): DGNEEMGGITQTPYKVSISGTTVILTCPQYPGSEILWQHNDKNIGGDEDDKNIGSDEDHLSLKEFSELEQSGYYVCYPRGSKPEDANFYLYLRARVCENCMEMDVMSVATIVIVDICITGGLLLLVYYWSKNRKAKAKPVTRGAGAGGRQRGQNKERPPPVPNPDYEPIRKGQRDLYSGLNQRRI
T1 sequence (P09693 23-182, chain 2 of 4, further chain): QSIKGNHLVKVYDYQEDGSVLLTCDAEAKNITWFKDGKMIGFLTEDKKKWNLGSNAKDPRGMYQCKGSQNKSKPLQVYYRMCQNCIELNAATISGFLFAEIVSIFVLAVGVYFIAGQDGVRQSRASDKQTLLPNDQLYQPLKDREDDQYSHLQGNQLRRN
T1 sequence (P04234 22-171, chain 3 of 4, further chain): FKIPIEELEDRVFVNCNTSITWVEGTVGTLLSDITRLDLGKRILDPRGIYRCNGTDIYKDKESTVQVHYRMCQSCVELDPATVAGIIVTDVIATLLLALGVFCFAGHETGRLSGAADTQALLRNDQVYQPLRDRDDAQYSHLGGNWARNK
T1 sequence (P20963 22-164, chain 4 of 4, further chain): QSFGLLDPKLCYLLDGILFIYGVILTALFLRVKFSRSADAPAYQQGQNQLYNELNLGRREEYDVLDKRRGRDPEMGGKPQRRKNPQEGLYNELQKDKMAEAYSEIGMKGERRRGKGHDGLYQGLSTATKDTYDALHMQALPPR
method: FACS on Jurkat cells, Alexa 488 secondary antibody, MFI [a]
Examples of binders with documented EC50 (read off the curve) follow.

Some solved cases for reference:
| binder | EC50 (read off the curve) |
| --- | --- |
| hAb001-21 (antibody, V domains shown, Humanized; constant regions not specified) VH: QVQLVQSGAEVKKPGASVKVSCKASGYSFTNYYMHWVRQAPGQRLEWIGWTYPGNNNIKYNEKFKGRVTITADTSASTAYMELSSLRSEDTAVYYCARDGYGYYFFDYWGQGTLVTVSS VL: DIVMTQSPDSLAVSLGERATINCKSSQSLLNNRTRKNYLAWYQQKPGQPPKLLIYWASTRESGVPDRFSGSGSGTDFTLTISSLQAEDVAVYYCKQSYTLRTFGGGTKLEIK | ~0.3 nM |
| hAb001-27 (antibody, V domains shown, Humanized; constant regions not specified) VH: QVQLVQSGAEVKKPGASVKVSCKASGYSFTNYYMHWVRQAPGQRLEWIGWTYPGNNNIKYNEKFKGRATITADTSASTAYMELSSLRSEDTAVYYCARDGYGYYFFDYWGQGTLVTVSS VL: DIVMTQSPDSLAVSLGERATMSCKSSQSLLNNRTRKNYLAWYQQKPGQPPKLLIYWASTRESGVPDRFSGSGSGTDFTLTISSLQAEDVAVYYCKQSYTLRTFGGGTKLEIK | ~0.3 nM |

API: the following record is the query input.
[in] State its EC50 (read off the curve) for this binder: CAb001 (antibody, V domains shown, Chimeric: mouse variable regions linked to human light and heavy constant regions; constant regions not specified) VH: QVQLQQSGPELVKPGASVKISCKASGYSFTNYYMHWVKQRPGQGLEWIGWTYPGNNNIKYNEKFKGKATLTADTSSSTAYMQLSSLTSEDSAVYYCARDGYGYYFFDYWGQGIILTVSS VL: DIVMSQSPSSLAVSAGEKVTMSCKSSQSLLNNRTRKNYLAWYQQKPGQSPKLLIYWASTRESGVPDRFTGSGSGTDFTLTISSVQAEDLAIYYCKQSYTLRTFGGGTKLAIK
[out] ~0.3 nM
